Study Target: acetylcholine receptor
Assay Remarks: SPR, AchR immobilized on CM5 chip, peptide 10 uM
Label key: met means Binding affinity (RU) under 30 RU; not met means Binding affinity (RU) of 30 RU or more.

> print(dat)
                binder  qualitative.label
1  RKQLYK [6mer-1-370]            not met
2  RRVFYR [6mer-1-375]            not met
3  KRKCWR [6mer-1-780]                met
4  KKRICK [6mer-1-365]            not met
5  KRLYLK [6mer-1-353]            not met
6  RKEAGR [6mer-1-741]                met
7  KKTPNR [6mer-1-793]            not met

Where these numbers come from: patent US20250011363A1
